- system.under.test: purified human plasma kallikrein (Homo sapiens, UniProt P03952)
- Construct: Plasma prekallikrein is a zymogen of a trypsin-like serine protease
- Sequence (P03952 391-638 limits assumed): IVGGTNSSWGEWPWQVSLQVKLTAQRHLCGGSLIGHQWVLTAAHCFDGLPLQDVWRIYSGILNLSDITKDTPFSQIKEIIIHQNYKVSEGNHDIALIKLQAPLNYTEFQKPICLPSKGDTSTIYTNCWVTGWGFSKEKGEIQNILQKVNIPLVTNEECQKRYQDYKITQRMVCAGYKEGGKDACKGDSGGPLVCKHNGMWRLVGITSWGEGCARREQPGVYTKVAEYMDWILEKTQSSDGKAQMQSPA
- Sequence (P03952 20-390 partner limits assumed): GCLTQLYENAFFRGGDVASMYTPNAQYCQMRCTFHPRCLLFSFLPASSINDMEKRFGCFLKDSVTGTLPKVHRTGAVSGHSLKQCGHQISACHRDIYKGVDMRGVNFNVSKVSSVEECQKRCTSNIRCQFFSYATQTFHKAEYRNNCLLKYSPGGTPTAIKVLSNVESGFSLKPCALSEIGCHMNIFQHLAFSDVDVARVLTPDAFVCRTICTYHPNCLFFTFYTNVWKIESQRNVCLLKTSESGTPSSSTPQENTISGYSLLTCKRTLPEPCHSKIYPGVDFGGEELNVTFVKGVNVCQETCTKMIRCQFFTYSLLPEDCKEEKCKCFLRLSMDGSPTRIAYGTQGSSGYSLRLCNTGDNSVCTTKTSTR
- measurement.notes: Plasma kallikrein inhibition assay (chromogenic substrate hydrolysis, Ki)
- measurement.setup: substrate S-2302, pH 7.5
quantity.kind: pKi
Just so you know, pKi here is -log10 of the concentration in molar units; reply with that number alone.

Solved cases below.
C[C@@H]1CCC[C@H](n2cnc(-c3cc(Cl)ccc3-n3cc(C(F)(F)F)nn3)cc2=O)c2cccc(c2)C2C(CCCN2C)NC1=O (single isomer, unassigned) [Example 27]: 6.39
Cc1c(C(=O)N[C@H]2CCC[C@@H](C)C(=O)N[C@@H](CC#N)Cc3cccc2c3)ncn1-c1cccc(Cl)c1F: 5.21

So what pKi did COC(=O)NCC[C@@H]1Cc2cccc(c2)[C@@H](n2cnc(-c3cc(Cl)ccc3-n3cc(C(F)(F)F)nn3)cc2=O)CCC[C@@H](C)C(=O)N1 get with purified human plasma kallikrein (Homo sapiens, UniProt P03952)?
5.75

----------
Ki tested on purified human Factor XIa (Homo sapiens, UniProt P03951): recorded values
Sequence (P03951 388-625 limits assumed): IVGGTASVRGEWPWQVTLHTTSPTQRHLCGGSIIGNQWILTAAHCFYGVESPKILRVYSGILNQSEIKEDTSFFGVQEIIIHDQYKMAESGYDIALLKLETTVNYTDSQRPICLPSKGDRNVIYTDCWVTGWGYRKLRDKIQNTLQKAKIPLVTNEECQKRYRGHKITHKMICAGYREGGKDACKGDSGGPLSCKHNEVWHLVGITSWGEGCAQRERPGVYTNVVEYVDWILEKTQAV
Sequence (P03951 19-387 partner limits assumed): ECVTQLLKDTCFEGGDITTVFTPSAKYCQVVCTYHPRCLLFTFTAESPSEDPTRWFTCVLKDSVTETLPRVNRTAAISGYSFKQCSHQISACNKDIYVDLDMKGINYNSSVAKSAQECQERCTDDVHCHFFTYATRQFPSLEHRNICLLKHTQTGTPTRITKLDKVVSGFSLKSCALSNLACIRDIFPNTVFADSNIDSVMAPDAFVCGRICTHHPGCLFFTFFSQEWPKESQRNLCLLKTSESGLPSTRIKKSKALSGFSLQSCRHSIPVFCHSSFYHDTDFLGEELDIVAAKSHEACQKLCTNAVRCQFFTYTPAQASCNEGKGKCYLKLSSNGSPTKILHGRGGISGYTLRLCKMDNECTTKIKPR
Quick reminder: number only, in nM, skip the unit.

COC(=O)NCC[C@H]1Cc2cccc(c2)[C@@H](n2cnc(-c3cc(Cl)ccc3-n3cc(C(F)(F)F)nn3)cc2=O)CCC[C@@H](C)C(=O)N1: 130
O=C1NCCCCC[C@H](n2cnc(-c3cc(Cl)ccc3-n3cc(Cl)nn3)cc2=O)c2cc(ccn2)[C@H]2C[C@@H]12: 12.7
COC(=O)[C@H]1Cc2cccc(c2)[C@@H](n2cnc(-c3cc(Cl)ccc3-n3cc(Cl)nn3)cc2=O)CCC[C@@H](C)C(=O)N1: 53

Would you kindly look at the next entry?
Find the recorded Ki belonging to CC(=O)N1CCCC2NC(=O)[C@H](C)CCC[C@H](n3cnc(-c4c(-n5cc(Cl)nn5)ccc(Cl)c4F)cc3=O)c3cccc(c3)C21 (single isomer, unassigned) and report it.
1420

----------
Measured pKi, listed per entry for reference.
- system.under.test: purified human plasma kallikrein (Homo sapiens, UniProt P03952)
- Construct: Plasma prekallikrein is a zymogen of a trypsin-like serine protease
- measurement.notes: Plasma kallikrein inhibition assay (chromogenic substrate hydrolysis, Ki)
- measurement.setup: substrate S-2302, pH 7.5
Please treat pKi as minus the base-10 logarithm of the molar concentration.

Some compounds with recorded pKi:
C[C@@H]1CCC[C@H](n2cnc(-c3cc(Cl)ccc3-n3cc(C(F)(F)F)nn3)cc2=O)c2cccc(c2)C2C(CCCN2C)NC1=O (single isomer, unassigned) [Example 28]: 4.95
O=C1CCCc2ccnc(c2)[C@@H](n2cnc(-c3cc(Cl)ccc3-n3cc(Cl)nn3)cc2=O)CCCCCN1: 5.72
O=C1NCCCCC[C@H](n2cnc(-c3cc(Cl)ccc3-n3cc(Cl)nn3)cc2=O)c2cc(ccn2)[C@@H]2C[C@H]12: 5.51
C[C@@H]1CCC[C@H](n2cnc(-c3cc(Cl)ccc3-n3cc(C(F)(F)F)nn3)cc2=O)c2cccc(c2)C[C@H](CC#N)NC1=O: 5.38
COC(=O)NCC[C@H]1Cc2cccc(c2)[C@@H](n2cnc(-c3cc(Cl)ccc3-n3cc(C(F)(F)F)nn3)cc2=O)CCC[C@@H](C)C(=O)N1: 5.08

Please turn your attention to the following entry.
Find pKi (purified human plasma kallikrein (Homo sapiens, UniProt P03952)) for the entry C[C@@H]1CCC[C@H](n2cnc(-c3cc(Cl)ccc3-n3cc(C(F)(F)F)nn3)cc2=O)c2cccc(c2)C[C@@H](CC#N)NC1=O
5.89
